// provenance: PubChem BioAssay AID2060497

system: 317291-083-R-J1-PDC complex spheroids, viability; experiment: Anticancer human tumor 317291-083-R-J1-PDC patient-derived soft tissue sarcoma cell line growth inhibition [GQUAD]; conditions: second compound 0.0316 µM; first compound 10 µM; active = viability on the fitted dose curve at most 10% of control; inactive = the rest
Your reply should match one of these outcome classes. Y = active, N = inactive

Request: Outcome logged for O=C(c1cc(Cc2n[nH]c(=O)c3ccccc23)ccc1F)N1CCN(C(=O)C2CC2)CC1 + Cc1cnc(CNC(=O)c2c(=O)c3ccc(N4CCCN(C)CC4)nc3n3c2sc2ccccc23)cn1 in this assay:
Response: N

Request: Outcome logged for CC1COCCN1c1cc(C2(S(C)(=N)=O)CC2)nc(-c2ccnc3[nH]ccc23)n1 (stereo not given) + Cc1cnc(CNC(=O)c2c(=O)c3ccc(N4CCCN(C)CC4)nc3n3c2sc2ccccc23)cn1 in this assay:
Response: Y

====

System: 317291-083-R-J1-PDC complex spheroids, viability
Assay: Anticancer human tumor 317291-083-R-J1-PDC cell line growth inhibition [GQUAD]; active = viability on the fitted dose curve at most 10% of control; inactive = the rest;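 note: spheroids exposed to compounds for one week before readout; percent viability relative to DMSO vehicle wells taken as 100%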
Details: second compound 3.16 µM; first compound 0.1 µM
Text: DNA G-quadruplex Stabilizer Agents in Combinations in Complex Spheroids A high-throughput screen of multi-cell type tumor spheroids was designed to identify active combinations of DNA G-quadruplex stabilizer agents and targeted small molecules. […] Compounds. […] If the clinical Cmax for an agent had not been determined, the highest concentration tested was 10 microM. […]
Your reply should match one of these outcome classes. TRUE for active, FALSE for inactive

Request: Outcome logged for CC(C)(O)C1CCC(Nc2ccc3ncc(-c4cccc(C(F)(F)F)c4)n3n2)CC1 (stereo not given) + CN(C)c1ccc(Nc2c3ccc(NC(=O)CCN4CCCC4)cc3nc3cc(NC(=O)CCN4CCCC4)ccc23)cc1 in this assay:
Response: TRUE

Request: Outcome logged for CC(=O)O[C@H]1C(=O)[C@@]2(C)[C@H]([C@H](OC(=O)c3ccccc3)[C@]3(O)C[C@H](OC(=O)[C@H](O)[C@@H](NC(=O)c4ccccc4)c4ccccc4)C(C)=C1C3(C)C)[C@]1(OC(C)=O)CO[C@@H]1C[C@@H]2O + Cc1cnc(CNC(=O)c2c(=O)c3ccc(N4CCCN(C)CC4)nc3n3c2sc2ccccc23)cn1 in this assay:
Response: TRUE

====

Tested on: 317291-083-R-J1-PDC complex spheroids, viability
Assay: Anticancer human tumor 317291-083-R-J1-PDC cell line growth inhibition [GQUAD];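 note: spheroids exposed to compounds for one week before readout; percent viability relative to DMSO vehicle wells taken as 100%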
Settings: second compound 10 µM; first compound 0.316 µM; stronger effect = lower value
Description: DNA G-quadruplex Stabilizer Agents in Combinations in Complex Spheroids A high-throughput screen of multi-cell type tumor spheroids was designed to identify active combinations of DNA G-quadruplex stabilizer agents and targeted small molecules. […] Compounds. […] If the clinical Cmax for an agent had not been determined, the highest concentration tested was 10 microM. […]
Answer each item with its documented viability, T/C.
Numbers only, in %.

{"Molecule": "O=C(NO)c1cnc(N2CCN(S(=O)(=O)c3ccc4ccccc4c3)CC2)nc1 + Cc1cnc(CNC(=O)c2c(=O)c3ccc(N4CCCN(C)CC4)nc3n3c2sc2ccccc23)cn1", "Unit Of Measurement": "%", "viability, T/C": 0.16}
{"Molecule": "CC1COCCN1c1cc(C2(S(C)(=N)=O)CC2)nc(-c2ccnc3[nH]ccc23)n1 (stereo unspecified) + CN(C)c1ccc(Nc2c3ccc(NC(=O)CCN4CCCC4)cc3nc3cc(NC(=O)CCN4CCCC4)ccc23)cc1", "Unit Of Measurement": "%", "viability, T/C": 7.2}
{"Molecule": "O=C(NO)c1cnc(N2CCN(S(=O)(=O)c3ccc4ccccc4c3)CC2)nc1 + Cc1[nH]c2ccc(F)cc2c1-c1nc2c3cccnc3c3ncccc3c2[nH]1", "Unit Of Measurement": "%", "viability, T/C": 4.65}
{"Molecule": "CC(C)(O)C1CCC(Nc2ccc3ncc(-c4cccc(C(F)(F)F)c4)n3n2)CC1 (stereo unspecified) + Cc1cnc(CNC(=O)c2c(=O)c3ccc(N4CCCN(C)CC4)nc3n3c2sc2ccccc23)cn1", "Unit Of Measurement": "%", "viability, T/C": 0.17}
{"Molecule": "COc1cccc2c1C(=O)c1c(O)c3c(c(O)c1C2=O)CC(O)(C(=O)CO)CC3OC1CC(N)C(O)C(C)O1 (stereo unspecified) + CN(C)c1ccc(Nc2c3ccc(NC(=O)CCN4CCCC4)cc3nc3cc(NC(=O)CCN4CCCC4)ccc23)cc1", "Unit Of Measurement": "%", "viability, T/C": 3.54}

Would you mind giving viability, T/C for every molecule in the list below?
1. COc1cc(C2c3cc4c(cc3C(OC3OC5COC(C)OC5C(O)C3O)C3COC(=O)C23)OCO4)cc(OC)c1O (stereo unspecified) + Cc1cnc(CNC(=O)c2c(=O)c3ccc(N4CCCN(C)CC4)nc3n3c2sc2ccccc23)cn1
2. CC(C)n1c(=O)n(C)c2cnc3cc(F)c(-c4ccc(OCCCN5CCCCC5)nc4)cc3c21 + Cc1[nH]c2ccc(F)cc2c1-c1nc2c3cccnc3c3ncccc3c2[nH]1
3. CCc1c2c(nc3ccc(O)cc13)-c1cc3c(c(=O)n1C2)COC(=O)[C@]3(O)CC + Cc1[nH]c2ccc(F)cc2c1-c1nc2c3cccnc3c3ncccc3c2[nH]1
4. CCc1c2c(nc3ccc(O)cc13)-c1cc3c(c(=O)n1C2)COC(=O)[C@]3(O)CC + CN(C)c1ccc(Nc2c3ccc(NC(=O)CCN4CCCC4)cc3nc3cc(NC(=O)CCN4CCCC4)ccc23)cc1
5. CC[C@@]1(O)C(=O)OCc2c1cc1n(c2=O)Cc2cc3c(CN(C)C)c(O)ccc3nc2-1 + CN(C)c1ccc(Nc2c3ccc(NC(=O)CCN4CCCC4)cc3nc3cc(NC(=O)CCN4CCCC4)ccc23)cc1
6. CC(C)(O)C1CCC(Nc2ccc3ncc(-c4cccc(C(F)(F)F)c4)n3n2)CC1 (stereo unspecified) + Cc1[nH]c2ccc(F)cc2c1-c1nc2c3cccnc3c3ncccc3c2[nH]1

Response:
1. 9.56
2. 83.5
3. 7.19
4. 2.41
5. 4.27
6. 44.5

====

tested on: 317291-083-R-J1-PDC complex spheroids, viability; test: Anticancer human tumor 317291-083-R-J1-PDC cell line growth inhibition [GQUAD]; conditions: second compound 10 µM; first compound 0.316 µM; stronger effect = lower value;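 note: spheroids exposed to compounds for one week before readout; percent viability relative to DMSO vehicle wells taken as 100%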
Answer each item with its documented viability, T/C.

Known viability, T/C results, listed for orientation:
{"Compound": "C=CC(=O)N1CCN(c2nc(=O)n(-c3c(C)ccnc3C(C)C)c3nc(-c4c(O)cccc4F)c(F)cc23)C(C)C1 (centres undefined) + Cc1[nH]c2ccc(F)cc2c1-c1nc2c3cccnc3c3ncccc3c2[nH]1", "Value Measured": "78.5%"}
{"Compound": "C=CC(=O)N1CCN(c2nc(=O)n(-c3c(C)ccnc3C(C)C)c3nc(-c4c(O)cccc4F)c(F)cc23)C(C)C1 (centres undefined) + Cc1cnc(CNC(=O)c2c(=O)c3ccc(N4CCCN(C)CC4)nc3n3c2sc2ccccc23)cn1", "Value Measured": "22.2%"}
{"Compound": "CC(=O)O[C@H]1C(=O)[C@@]2(C)[C@H]([C@H](OC(=O)c3ccccc3)[C@]3(O)C[C@H](OC(=O)[C@H](O)[C@@H](NC(=O)c4ccccc4)c4ccccc4)C(C)=C1C3(C)C)[C@]1(OC(C)=O)CO[C@@H]1C[C@@H]2O + Cc1[nH]c2ccc(F)cc2c1-c1nc2c3cccnc3c3ncccc3c2[nH]1", "Value Measured": "15.2%"}

// next item, viability, T/C requested
Request: Tell me its viability, T/C given Cn1ncnc1[C@H]1c2n[nH]c(=O)c3cc(F)cc(c23)N[C@@H]1c1ccc(F)cc1 + Cc1cnc(CNC(=O)c2c(=O)c3ccc(N4CCCN(C)CC4)nc3n3c2sc2ccccc23)cn1 as the entry.
Response: 25.4%

====

system: 317291-083-R-J1-PDC complex spheroids, viability; assay: Anticancer human tumor 317291-083-R-J1-PDC cell line growth inhibition [GQUAD]; details: second compound 10 µM; first compound 3.16 µM; stronger effect = lower value;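 note: spheroids exposed to compounds for one week before readout; percent viability relative to DMSO vehicle wells taken as 100%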
Assay Readout: viability, T/C (%)
Answers are plain numbers, in %.

Known viability, T/C results, listed for orientation:
{"Compound": "CC(=O)O[C@H]1C(=O)[C@@]2(C)[C@H]([C@H](OC(=O)c3ccccc3)[C@]3(O)C[C@H](OC(=O)[C@H](O)[C@@H](NC(=O)c4ccccc4)c4ccccc4)C(C)=C1C3(C)C)[C@]1(OC(C)=O)CO[C@@H]1C[C@@H]2O + CN(C)c1ccc(Nc2c3ccc(NC(=O)CCN4CCCC4)cc3nc3cc(NC(=O)CCN4CCCC4)ccc23)cc1", "Assay Readout": "viability, T/C", "Unit Of Measurement": "%", "Value Measured": 0.25}
{"Compound": "COc1cc(C2c3cc4c(cc3C(OC3OC5COC(C)OC5C(O)C3O)C3COC(=O)C23)OCO4)cc(OC)c1O (configuration not stated) + CN(C)c1ccc(Nc2c3ccc(NC(=O)CCN4CCCC4)cc3nc3cc(NC(=O)CCN4CCCC4)ccc23)cc1", "Assay Readout": "viability, T/C", "Unit Of Measurement": "%", "Value Measured": 5.05}
{"Compound": "Cc1cccc(N(C)C(=O)C2C(O)CCN2c2nc(C)cc(C(F)(F)F)c2C#N)c1 (configuration not stated) + Cc1cnc(CNC(=O)c2c(=O)c3ccc(N4CCCN(C)CC4)nc3n3c2sc2ccccc23)cn1", "Assay Readout": "viability, T/C", "Unit Of Measurement": "%", "Value Measured": 28.8}

Would you mind giving viability, T/C for every compound in the list below?
1. C=CC(=O)N1CCN(c2nc(=O)n(-c3c(C)ccnc3C(C)C)c3nc(-c4c(O)cccc4F)c(F)cc23)C(C)C1 (configuration not stated) + CN(C)c1ccc(Nc2c3ccc(NC(=O)CCN4CCCC4)cc3nc3cc(NC(=O)CCN4CCCC4)ccc23)cc1
2. CC1COCCN1c1cc(C2(O)CC3CCC(C2)O3)c2cnn(-c3ccn[nH]3)c2n1 (configuration not stated) + Cc1cnc(CNC(=O)c2c(=O)c3ccc(N4CCCN(C)CC4)nc3n3c2sc2ccccc23)cn1
3. COc1cccc2c1C(=O)c1c(O)c3c(c(O)c1C2=O)CC(O)(C(=O)CO)CC3OC1CC(N)C(O)C(C)O1 (configuration not stated) + CN(C)c1ccc(Nc2c3ccc(NC(=O)CCN4CCCC4)cc3nc3cc(NC(=O)CCN4CCCC4)ccc23)cc1
4. COc1cc(C2c3cc4c(cc3C(OC3OC5COC(C)OC5C(O)C3O)C3COC(=O)C23)OCO4)cc(OC)c1O (configuration not stated) + Cc1[nH]c2ccc(F)cc2c1-c1nc2c3cccnc3c3ncccc3c2[nH]1
5. COc1ncnc(C2CC2)c1-c1ncc2cnn(Cc3ccc(-c4nc(C(F)(F)F)cn4C(C)C)cc3)c2n1 + Cc1[nH]c2ccc(F)cc2c1-c1nc2c3cccnc3c3ncccc3c2[nH]1
6. C#Cc1c(F)ccc2cc(O)cc(-c3ncc4c(N5CC6CCC(C5)N6)nc(OCC56CCCN5CC(F)C6)nc4c3F)c12 (configuration not stated) + CN(C)c1ccc(Nc2c3ccc(NC(=O)CCN4CCCC4)cc3nc3cc(NC(=O)CCN4CCCC4)ccc23)cc1
7. COc1ncnc(C2CC2)c1-c1ncc2cnn(Cc3ccc(-c4nc(C(F)(F)F)cn4C(C)C)cc3)c2n1 + CN(C)c1ccc(Nc2c3ccc(NC(=O)CCN4CCCC4)cc3nc3cc(NC(=O)CCN4CCCC4)ccc23)cc1
8. COc1ccc([C@@H](O)c2cc(-c3ncnc4cc(N5CCOCC5)ccc34)c(F)cc2Cl)nn1 + Cc1cnc(CNC(=O)c2c(=O)c3ccc(N4CCCN(C)CC4)nc3n3c2sc2ccccc23)cn1

Response:
[6.86, 12.1, 1.22, 11.9, 33.5, 0.24, 0.28, 18.6]
